# Test system: E. coli BW25113 ΔtolC derivative JW5503-1
# PROTOCOL_TEXT: MIC, microbroth dilution in Mueller-Hinton broth
# Assay type: cell-based, Escherichia coli
# PROTOCOL_CONDITIONS: Escherichia coli, BW25113, read-out: MIC ECΔtolC
MEASURED_ATTRIBUTE: MIC (µg/mL)
Supply the numeric figure in µg/mL, leaving out any unit text.

Task: Entry CC(C)C1NC(=O)C(C(=O)NC(C(=O)NC2C(=O)N3C2SC(C)(C)C3C(=O)O)c2ccccc2)=C1O (stereo not shown) , system E. coli BW25113 ΔtolC derivative JW5503-1: what MIC was measured?
Result: 3.13

Task: Ok, now CC1(C)SC2C(NC(=O)C(NC(=O)C3=C(O)CNC3=O)c3ccccc3)C(=O)N2C1C(=O)O (stereo not shown)
Result: 12.5

Task: Ok, now CN1CC(O)=C(C(=O)NC(C(=O)NC2C(=O)N3C2SC(C)(C)C3C(=O)O)c2ccccc2)C1=O (stereo not shown)
Result: 12.5

Now look at this entry.
Task: Entry CC1(C)SC2C(NC(=O)C(NC(=O)C3=C(O)C4(CC4)NC3=O)c3ccccc3)C(=O)N2C1C(=O)O (stereo not shown) , system E. coli BW25113 ΔtolC derivative JW5503-1: what MIC was measured?
Result: 3.13
